- Tested on: OVCAR-3 ovarian
- protocol.details: NCI tumour cell line growth inhibition, 48 h
Categories are defined by ranges of TGI, namely low: < 10 µM; mid: ≥ 10 µM and < 30 µM; high: ≥ 30 µM

Query :: Please indicate the class for O=[N+]([O-])c1ccc(N2N=C(c3ccc(NCc4nc5ccccc5[nH]4)cc3)CC2c2ccco2)cc1 (configuration not stated) based on its TGI.
Result :: high

Query :: Lab log: COC(=O)[C@]12CCC(C)(C)C[C@H]1[C@H]1C(=O)C=C3[C@@]4(C)C=C(C#N)C(=O)C(C)(C)[C@@H]4CC[C@@]3(C)[C@]1(C)CC2 — assign TGI category
Result :: low

Query :: Into which category would you place Cc1cc(C)c(C[C@H]2COC(=O)[C@]2(O)Cc2c(C)cc(C)cc2C)c(C)c1 ?
Result :: high

Query :: Categorize the following entry: COC(=O)/C=C/c1c(CC=C(C)C)ncn1C
Result :: high

Query :: Consider CCC(C)C1NC(=O)C(NC(=O)c2c3[nH]c4c(C(=O)NC5C(=O)NC(C(C)CC)C(=O)N6CCCC6C(=O)N(C)CC(=O)N(C)C(C(C)C)C(=O)OC5C)ccc(C)c4oc-3c(C)c(=O)c2=O)C(C)OC(=O)C(C(C)C)N(C)C(=O)CN(C)C(=O)C2CCCN2C1=O (configuration not stated) . To which TGI class does it belong?
Result :: high

Query :: Field: class (TGI) — entry: C=C1C(=O)O[C@H]2[C@H]1CC/C(COC(=O)/C=C\C(=O)NCc1ccc(Cn3c(=O)sn(CCCC)c3=O)cc1)=C\CC[C@@]1(C)O[C@@H]21
Result :: low

Query :: // return the class label for O[C@H](c1cc(C(F)(F)F)nc2c(C(F)(F)F)cccc12)[C@@H]1CCCCN1
Result :: mid

Query :: Returns: class label. Input: O=C(O)c1nc2ccc(C(F)(F)F)cc2nc1NCc1ccc(F)cc1
Result :: high

Query :: Place this compound in its band: N#CC1=C(N)Oc2cc(O)ccc2C1c1cccc2ccccc12 (configuration not stated)
Result :: mid

Query :: Field: class (TGI) — entry: [N-]=[N+]=NC1C(O)C(CO)OC1n1ccc(=O)[nH]c1=O (configuration not stated)
Result :: high

Query :: // return the class label for N#CC(C(=O)C(=O)Nc1ccc(Cl)cc1)c1ccccc1 (configuration not stated)
Result :: high

Query :: Please indicate the class for COc1ccc(-c2ccc(-c3ccc(C(=N)N)s3)s2)cc1 based on its TGI.
Result :: low

Query :: Into which bin does this compound go? NC(=O)c1cc(S(=O)(=O)Nc2nnc(-c3ccccc3)c(-c3ccccc3)n2)c(SCc2ccccc2)cc1Cl
Result :: high

Query :: Exam item: assign C=CC1C(OC2OC(CO)C(O)C(O)C2O)OC=C(C(=O)OC)C1CC1CC(=O)CC(CCc2ccc(O)cc2)O1 (configuration not stated) to the correct category.
Result :: high

Query :: Which of the defined bands does the recorded TGI of CCN1CCC(O)(/C=C/c2ccc(C)cc2)C(C(=O)/C=C/c2ccc(C)cc2)C1 (configuration not stated) sit within?
Result :: mid

Query :: Could you place Fc1ccc(C(=C2CCN(CCc3ccc4[nH]c(=S)[nH]c4c3)CC2)c2ccc(F)cc2)cc1 in its proper category? Many thanks.
Result :: low
